Taken from ChEMBL document CHEMBL2034967.

Biological target: N-acylethanolamine-hydrolyzing acid amidase (Rattus norvegicus)
Sequence (whole entry): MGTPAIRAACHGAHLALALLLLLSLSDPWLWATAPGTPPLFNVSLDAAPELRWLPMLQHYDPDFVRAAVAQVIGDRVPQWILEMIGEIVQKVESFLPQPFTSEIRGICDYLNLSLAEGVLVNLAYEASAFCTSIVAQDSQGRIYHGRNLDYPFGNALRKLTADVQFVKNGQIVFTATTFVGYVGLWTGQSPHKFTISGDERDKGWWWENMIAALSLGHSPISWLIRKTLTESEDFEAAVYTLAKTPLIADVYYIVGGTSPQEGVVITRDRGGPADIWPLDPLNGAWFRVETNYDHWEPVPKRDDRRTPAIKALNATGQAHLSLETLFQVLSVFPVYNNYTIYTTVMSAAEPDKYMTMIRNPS
Test: Inhibition of Wistar/ST rat lung NAAA assessed as conversion of [14C]PEA to [14C]palmitic acid at 100 uM after 20 mins
The source made the active and inactive calls. No cut-off for these calls is given here.
Tick one outcome: True = active, False = inactive

- CCCCC/C=C\C/C=C\C/C=C\C/C=C\CCCC(=O)NCC(=O)O: False
- CCCCCCCCCCCCCCCNC(=O)C1CCCCC1: False
- CCCCCCCCCCCCCCCCN: True

Q: GET /call?item= `CCCCCCCCCCCCCCCC(=O)NCC(=O)O` returns the recorded outcome of this test.
Result: False

Q: One more molecule: `CCCCCCCCCCCCN`
Result: True

====

Molecular target: N-acylethanolamine-hydrolyzing acid amidase (Rattus norvegicus)
Sequence (whole entry): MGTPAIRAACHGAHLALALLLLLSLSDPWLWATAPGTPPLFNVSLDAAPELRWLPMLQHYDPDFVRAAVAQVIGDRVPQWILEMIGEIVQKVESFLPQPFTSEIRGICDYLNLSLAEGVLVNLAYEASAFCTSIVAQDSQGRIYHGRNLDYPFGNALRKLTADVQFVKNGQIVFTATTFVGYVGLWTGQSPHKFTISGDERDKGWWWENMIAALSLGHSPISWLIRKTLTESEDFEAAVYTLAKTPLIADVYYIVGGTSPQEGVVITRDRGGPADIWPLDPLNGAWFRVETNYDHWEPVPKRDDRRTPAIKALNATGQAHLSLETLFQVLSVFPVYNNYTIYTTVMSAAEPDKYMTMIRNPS
Assay: Inhibition of Wistar/ST rat lung NAAA assessed as conversion of [14C]PEA to [14C]palmitic acid at 100 uM after 20 mins
Calls of active or inactive are those of the source. The rule behind the calls is not given here.
reportedMetric: inhibition

• CCCCCCCCCCCCCCN = Active
• CCCCCCCCCCCCCCCN = Active
• CCCCCCCCCCCCCCCC[N+](C)(C)C = Active
